- System: MDA-MB-453
- Experiment: normalised response (% of control), CellTiter-Glo; higher = more viable cells (100 = DMSO, 0 = benzethonium chloride kill control)
- Test Parameters: incubation time: 72 h
Readout Name: normalised response (%)
Numeric answer only, unit % assumed.

Solved entries (count: 4):
Molecule	normalised response / %
O=P1(N(CCCl)CCCl)NCCCO1 (centres undefined) [Cyclophosphamide] (4 nM)	115
C=C1C[C@@H]2[C@H](CC[C@]3(C)C(=O)CC[C@@H]23)[C@@]2(C)C=CC(=O)C=C12 [Exemestane] (10 nM)	116
COCC[n+]1c2c(n(Cc3cnccn3)c1C)C(=O)c1ccccc1C2=O [YM155] (10 nM)	66.2
COC(=O)c1ccc2c(c1)NC(=O)/C2=C(\Nc1ccc(N(C)C(=O)CN2CCN(C)CC2)cc1)c1ccccc1 [Nintedanib] (1000 nM)	96.2

What the record says about CN(C)CCOc1ccc(/C(=C(/CCCl)c2ccccc2)c2ccccc2)cc1 [Toremifene] (1000 nM) : normalised response is 106

# molecule COC(=O)c1ccc2c(c1)NC(=O)/C2=C(\Nc1ccc(N(C)C(=O)CN2CCN(C)CC2)cc1)c1ccccc1 [Nintedanib] (1 nM) ; its normalised response = 120

Lookup result for C=C1C[C@@H]2[C@H](CC[C@]3(C)C(=O)CC[C@@H]23)[C@@]2(C)C=CC(=O)C=C12 [Exemestane] (1000 nM) ; measured normalised response: 105

Value of normalised response reported for the molecule CCn1c(-c2nonc2N)nc2cnc(Oc3cccc(NC(=O)c4ccc(OCCN5CCOCC5)cc4)c3)cc21 (1000 nM) is 95.6

NC(=O)c1ccc(I)c([N+](=O)[O-])c1 [Iniparib] (10 nM) yielded normalised response of 77.9

Consider CCOC(=O)CCNc1cc(N2CCc3ccccc3CC2)nc(-c2ccccn2)n1 [GSK-J4] (10000 nM) . Its measured normalised response is 33.1

# normalised response of Cc1[nH]c2ccccc2c1CCNCc1ccc(/C=C/C(=O)NO)cc1 [Panobinostat] (100 nM) = 3.15

====

- System: DU-4475
- Experiment: normalised response (% of control), CellTox Green; higher = less cell death (100 = DMSO, 0 = benzethonium chloride kill control)
- Test Parameters: incubation time: 72 h
Listing of recorded normalised response by entry.
Field format: number, assumed %, no unit text.

# count of solved cases: 4
                                   compound         readout_name  experimental_result
0  CNC(=O)c1cc(Oc2ccc(NC(=O)Nc3ccc(Cl)c(C(F)(F)F)c3)c(F)c2)ccn1 [Regorafenib] (1000 nM)  normalised response                  102
1  COc1cc(O)c2c(c1)/C=C/C[C@H](O)[C@H](O)C(=O)/C=C\C[C@H](C)OC2=O [(5Z)-7-Oxozeaenol] (100 nM)  normalised response                 96.9
2  N#Cc1ccc(COC[C@H]2O[C@@H](n3c(NCc4ccc(Cl)c(Cl)c4)nc4c(N)ncnc43)[C@H](O)[C@@H]2O)cc1 (1000 nM)  normalised response                  103
3  O=P1(N(CCCl)CCCl)NCCCO1 (stereo not drawn) [Cyclophosphamide] (400 nM)  normalised response                   99

# compound NC(=O)c1ccc(I)c([N+](=O)[O-])c1 [Iniparib] (10000 nM) ; its normalised response = 94.3

For O=C(Nc1cccnc1)N1CCC(Cc2cccc(Oc3ccc(C(F)(F)F)cn3)c2)CC1 [PF-3845] (10000 nM) the compound record lists normalised response as 101

Input Cc1[nH]c2ccccc2c1CCNCc1ccc(/C=C/C(=O)NO)cc1 [Panobinostat] (100 nM) . Output normalised response: 62.1

Documented normalised response of CNC(=O)c1cccc(-c2ccc3c(N4CCOC[C@@H]4C)nc(N4CCOC[C@@H]4C)nc3n2)c1 [AZD2014] (1000 nM) : 102

====

- System: MDA-MB-468
- Experiment: normalised viability (% of control), CellTiter-Blue; higher = more viable cells (about 100 = DMSO control)
- Test Parameters: 10000 nM; incubation time: 72 h
Each record here notes measured normalised viability.
Please reply with the bare figure in % and do not write the unit itself.

Examples with answers:
>>> df
                  compound_structure_string  experimental_result
0  N#Cc1ccc(COC[C@H]2O[C@@H](n3c(NCc4ccc(Cl)c(Cl)c4)nc4c(N)ncnc43)[C@H](O)[C@@H]2O)cc1                 68.7
1  Cc1cc(Nc2cc(CN3CCOCC3)c3nc(C)c(Cc4ccc(Cl)cc4F)n3n2)n[nH]1                 7.11

Sure, the documented normalised viability for CN(C)CCOc1ccc(/C(=C(/CCCl)c2ccccc2)c2ccccc2)cc1 is 17.9

response.value for CN(C)c1nc(N(C)C)nc(N(C)C)n1 (field: normalised viability) = 103

// recorded normalised viability for COC(=O)c1ccc2c(c1)NC(=O)/C2=C(\Nc1ccc(N(C)C(=O)CN2CCN(C)CC2)cc1)c1ccccc1 : 17.6

Cc1ccc(NC(=O)c2ccc(CN3CCN(C)CC3)cc2)cc1Nc1nc(-c2cccnc2)cs1 yielded normalised viability of 53.4

Value of normalised viability reported for the compound CNC(=O)c1cc(Oc2ccc(NC(=O)Nc3ccc(Cl)c(C(F)(F)F)c3)c(F)c2)ccn1 is 34.5

====

- System: SK-BR-3
- Experiment: normalised viability (% of control), CellTiter-Blue; higher = more viable cells (about 100 = DMSO control)
- Test Parameters: 100 nM; incubation time: 72 h
Please respond with rule met when measured normalised viability is strictly beneath 90%, and with rule not met in all other cases.

# example entries with known answers
                                   compound   system           cat
0  COc1cc2/c(=N/c3ccc(Br)cc3F)nc[nH]c2cc1OCC1CCN(C)CC1  SK-BR-3      rule met
1  C=C1C[C@@H]2[C@H](CC[C@]3(C)C(=O)CC[C@@H]23)[C@@]2(C)C=CC(=O)C=C12  SK-BR-3      rule met
2  COCC1(CO)C(=O)C2CCN1CC2 (stereo unspecified)  SK-BR-3  rule not met
3  COCC[n+]1c2c(n(Cc3cnccn3)c1C)C(=O)c1ccccc1C2=O  SK-BR-3      rule met

// switching to the query compound
Query: State whether 90% exceeds normalised viability recorded for O=C(Nc1cccnc1)N1CCC(Cc2cccc(Oc3ccc(C(F)(F)F)cn3)c2)CC1 .
Reply: rule not met

====

- Tested on: HCC1143
- Experiment: normalised response (% of control), CellTiter-Glo; higher = more viable cells (100 = DMSO, 0 = benzethonium chloride kill control)
- Test Parameters: incubation time: 72 h
Readout Name: normalised response (%)
Supply the numeric figure in %, leaving out any unit text.

Compound	Readout Name	Experimental Result
Nc1cc(C(F)(F)F)c(-c2cc(N3CCOCC3)nc(N3CCOCC3)n2)cn1 [Buparlisib] (100 nM)	normalised response	99
S=P(N1CC1)(N1CC1)N1CC1 [Thio-TEPA] (500 nM)	normalised response	97.5
c1ccc2c(CCNc3ccc(Nc4ccncc4)cc3)c[nH]c2c1 [Serdemetan] (100 nM)	normalised response	99.2
O=P1(N(CCCl)CCCl)NCCCO1 (configuration not stated) [Cyclophosphamide] (400 nM)	normalised response	98.7
CCc1c2c(nc3ccc(OC(=O)N4CCC(N5CCCCC5)CC4)cc13)-c1cc3c(c(=O)n1C2)COC(=O)[C@]3(O)CC [Irinotecan] (100 nM)	normalised response	96
CO[C@H]1C[C@@H]2CC[C@@H](C)[C@@](O)(O2)C(=O)C(=O)N2CCCC[C@H]2C(=O)O[C@H]([C@H](C)C[C@@H]2CC[C@@H](OP(C)(C)=O)[C@H](OC)C2)CC(=O)[C@H](C)/C=C(\C)[C@@H](O)[C@@H](OC)C(=O)[C@H](C)C[C@H](C)/C=C/C=C/C=C/1C [Ridaforolimus] (1 nM)	normalised response	81.1

Here is the next item to consider.
Looking up CNC(=O)c1ccc(N2C(=S)N(c3ccc(C#N)c(C(F)(F)F)c3)C(=O)C23CCC3)cc1F [RD162] (100 nM) , I see its normalised response listed as 101

====

This listing pairs molecules with measured normalised response.
- Test system: HDQ-P1
- Experiment: normalised response (% of control), CellTox Green; higher = less cell death (100 = DMSO, 0 = benzethonium chloride kill control)
- Test Parameters: incubation time: 72 h
Answer format: numeric, % implied, no suffix.

Look over these answered cases.
In [3]: df
Out[3]:
                                   molecule  system         readout_name  experimental_result
0  CCc1c2c(nc3ccc(OC(=O)N4CCC(N5CCCCC5)CC4)cc13)-c1cc3c(c(=O)n1C2)COC(=O)[C@]3(O)CC [Irinotecan] (100 nM)  HDQ-P1  normalised response                  117
1  Cc1ccc(NC(=O)c2ccc(CN3CCN(C)CC3)cc2)cc1Nc1nc(-c2cccnc2)cs1 [Masitinib] (1000 nM)  HDQ-P1  normalised response                 89.1

Query Nc1cc(C(F)(F)F)c(-c2cc(N3CCOCC3)nc(N3CCOCC3)n2)cn1 [Buparlisib] (100 nM) on HDQ-P1; normalised response returned: 96.4

Known value: HDQ-P1 normalised response of the molecule COc1cc2ncnc(Nc3ccc(F)c(Cl)c3)c2cc1OCCCN1CCOCC1 [Gefitinib] (10000 nM) equals 94.9

Lab entry: HDQ-P1 assay, molecule COC(=O)c1ccc2c(c1)NC(=O)/C2=C(\Nc1ccc(N(C)C(=O)CN2CCN(C)CC2)cc1)c1ccccc1 [Nintedanib] (1000 nM) , normalised response = 96

The value of normalised response recorded for O=P1(N(CCCl)CCCl)NCCCO1 (stereo unspecified) [Cyclophosphamide] (40000 nM) when tested on HDQ-P1 reads 107

Measured on HDQ-P1, CN(C)c1nc(N(C)C)nc(N(C)C)n1 [Altretamine] (1000 nM) has a documented normalised response of 69.2

The molecule Oc1ccc2c(c1)CC[C@H](c1ccccc1)[C@@H]2c1ccc(OCCN2CCCC2)cc1 [Lasofoxifene] (100 nM) on HDQ-P1: normalised response was 66

Bench note, HDQ-P1: entry S=P(N1CC1)(N1CC1)N1CC1 [Thio-TEPA] (500 nM) , its normalised response = 92.6

Query CNC(=O)c1cc(Oc2ccc(NC(=O)Nc3ccc(Cl)c(C(F)(F)F)c3)c(F)c2)ccn1 [Regorafenib] (100 nM) on HDQ-P1; normalised response returned: 101

HDQ-P1 normalised response of CNC(=O)c1ccc(N2C(=S)N(c3ccc(C#N)c(C(F)(F)F)c3)C(=O)C2(C)C)cc1F [Enzalutamide] (1000 nM) is 54.2

# COc1cc(O)c2c(c1)/C=C/C[C@H](O)[C@H](O)C(=O)/C=C\C[C@H](C)OC2=O [(5Z)-7-Oxozeaenol] (1000 nM) with HDQ-P1: normalised response is 66.1

HDQ-P1 normalised response of Cc1ccc(NC(=O)c2ccc(CN3CCN(C)CC3)cc2)cc1Nc1nc(-c2cccnc2)cs1 [Masitinib] (100 nM) is 87.1

The recorded normalised response with HDQ-P1 for Oc1ccc2c(c1)CC[C@H](c1ccccc1)[C@@H]2c1ccc(OCCN2CCCC2)cc1 [Lasofoxifene] (1000 nM) was 86.1

Value sought: normalised response, system HDQ-P1, item S=P(N1CC1)(N1CC1)N1CC1 [Thio-TEPA] (50000 nM) . Result: 97.6

Response field normalised response (HDQ-P1) for item CCOC(=O)CCNc1cc(N2CCc3ccccc3CC2)nc(-c2ccccn2)n1 [GSK-J4] (1000 nM) : 89.9

Cited source: the supplement of paper PMC4862054
